# measurement-target: Integrin alpha-4/beta-1 (Homo sapiens, UniProt P05556+P13612)
# Sequence (P05556 whole entry): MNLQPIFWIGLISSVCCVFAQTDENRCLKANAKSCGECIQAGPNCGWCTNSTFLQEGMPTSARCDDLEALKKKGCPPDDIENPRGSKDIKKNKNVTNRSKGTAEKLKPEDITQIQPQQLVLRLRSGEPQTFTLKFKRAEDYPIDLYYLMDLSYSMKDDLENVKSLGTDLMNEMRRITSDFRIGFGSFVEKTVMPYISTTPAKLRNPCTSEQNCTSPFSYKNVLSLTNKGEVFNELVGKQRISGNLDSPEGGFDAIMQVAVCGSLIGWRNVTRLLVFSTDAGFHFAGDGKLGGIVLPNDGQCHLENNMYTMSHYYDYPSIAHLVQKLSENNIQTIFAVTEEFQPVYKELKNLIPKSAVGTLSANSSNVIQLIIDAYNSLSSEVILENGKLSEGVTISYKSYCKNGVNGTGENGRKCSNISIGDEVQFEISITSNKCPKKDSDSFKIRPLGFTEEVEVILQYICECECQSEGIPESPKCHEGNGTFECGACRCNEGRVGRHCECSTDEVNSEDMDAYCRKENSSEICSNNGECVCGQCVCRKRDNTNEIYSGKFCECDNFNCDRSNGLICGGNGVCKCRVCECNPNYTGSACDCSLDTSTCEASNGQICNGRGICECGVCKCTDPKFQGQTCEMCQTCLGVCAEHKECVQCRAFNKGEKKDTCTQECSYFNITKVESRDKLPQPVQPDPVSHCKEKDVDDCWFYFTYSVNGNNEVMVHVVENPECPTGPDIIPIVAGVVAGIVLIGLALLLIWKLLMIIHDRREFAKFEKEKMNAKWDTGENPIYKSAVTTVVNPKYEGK
# Sequence (P13612 whole entry): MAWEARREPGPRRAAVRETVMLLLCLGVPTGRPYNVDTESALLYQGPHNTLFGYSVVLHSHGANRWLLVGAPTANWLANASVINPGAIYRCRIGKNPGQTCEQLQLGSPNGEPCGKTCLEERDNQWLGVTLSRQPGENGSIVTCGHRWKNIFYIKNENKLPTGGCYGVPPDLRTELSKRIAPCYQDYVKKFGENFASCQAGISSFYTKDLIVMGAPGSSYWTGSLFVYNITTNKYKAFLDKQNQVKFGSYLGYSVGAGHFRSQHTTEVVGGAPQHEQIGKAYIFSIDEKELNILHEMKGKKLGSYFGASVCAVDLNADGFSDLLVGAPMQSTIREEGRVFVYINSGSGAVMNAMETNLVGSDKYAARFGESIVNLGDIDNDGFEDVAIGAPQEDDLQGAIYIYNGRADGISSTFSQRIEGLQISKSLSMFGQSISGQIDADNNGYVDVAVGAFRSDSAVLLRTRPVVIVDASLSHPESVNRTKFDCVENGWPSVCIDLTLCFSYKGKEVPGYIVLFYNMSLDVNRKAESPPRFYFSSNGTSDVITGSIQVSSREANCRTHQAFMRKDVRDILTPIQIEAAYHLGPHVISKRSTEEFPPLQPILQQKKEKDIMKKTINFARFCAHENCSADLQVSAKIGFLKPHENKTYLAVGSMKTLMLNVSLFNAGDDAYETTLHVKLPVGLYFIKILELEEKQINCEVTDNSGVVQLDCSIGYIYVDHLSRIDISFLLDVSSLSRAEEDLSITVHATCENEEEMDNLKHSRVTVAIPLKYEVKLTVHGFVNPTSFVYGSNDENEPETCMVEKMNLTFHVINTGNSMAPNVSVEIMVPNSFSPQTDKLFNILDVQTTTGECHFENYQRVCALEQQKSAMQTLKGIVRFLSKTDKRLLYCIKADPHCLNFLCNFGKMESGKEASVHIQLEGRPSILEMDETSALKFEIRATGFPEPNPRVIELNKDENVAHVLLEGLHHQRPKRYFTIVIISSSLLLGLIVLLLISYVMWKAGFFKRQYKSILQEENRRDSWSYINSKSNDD
# protocol: Inhibition of integrin alpha-4-beta-1 receptor expressed in Jurkat J6 cells by SPA
quantity-measured: Ki (nM)

Cc1ccccc1NC(=O)Nc1ccc(-c2cccn(Cc3ccc([C@@H](C)CC(=O)O)cc3)c2=O)cc1 :: 2.51
COc1ccccc1NC(=O)Nc1ccc(-c2cccn(Cc3ccc(CCC(=O)O)cc3)c2=O)cc1OC :: 6.31
Cc1ccccc1NC(=O)Nc1ccc(-c2cccn(Cc3ccc([C@@H](C)CC(=O)O)cc3)c2=O)cc1Cl :: 25.1

1 = COc1cc(-c2cccn(Cc3ccc([C@@H](C)CC(=O)O)cc3)c2=O)ccc1NC(=O)Nc1ccccc1C
2 = CCc1cc(NC(=O)Nc2ccccc2C)ccc1-c1cccn(Cc2ccc([C@H](C)CC(=O)O)cc2)c1=O
3 = CCOc1cc(NC(=O)Nc2ccccc2C)ccc1-c1cccn(Cc2ccc([C@H](C)CC(=O)O)cc2)c1=O
Order the 3 compounds from highest to lowest Ki. Returns: the labels arranged in the requested order.
2, 3, 1
(2: 6.31 nM, 3: 2 nM, 1: 1 nM)

A = Cc1ccccc1NC(=O)Nc1ccc(-c2cccn(Cc3ccc([C@H](C)CC(=O)O)cc3)c2=O)cc1Cl
B = Cc1ccccc1NC(=O)Nc1ccc(-c2cccn(Cc3ccc([C@H](C)CC(=O)O)cc3)c2=O)cc1C
C = Cc1ccccc1NC(=O)Nc1ccc(-c2cccn(Cc3ccc([C@@H](C)CC(=O)O)cc3)c2=O)c(OC(F)(F)F)c1
D = Cc1ccccc1NC(=O)Nc1ccc(-c2cccn(Cc3ccc([C@H](C)CC(=O)O)cc3)c2=O)c(OC(F)(F)F)c1
E = COc1cc(-c2cccn(Cc3ccc(CCC(=O)O)cc3)c2=O)ccc1NC(=O)Nc1ccccc1NC(C)=O
Order the 5 compounds from highest to lowest Ki. Returns: the labels arranged in the requested order.
C, E, D, B, A
(C: 20 nM, E: 6.31 nM, D: 3.98 nM, B: 2.51 nM, A: 0.794 nM)

I = COc1cc(-c2cccn(Cc3ccc(CCC(=O)O)cc3)c2=O)ccc1NC(=O)Nc1c(C)cccc1C
II = Cc1ccccc1NC(=O)Nc1ccc(-c2cccn(Cc3ccc([C@@H](C)CC(=O)O)cc3)c2=O)cc1C
III = COc1cc(-c2cccn(Cc3ccc(CCC(=O)O)cc3)c2=O)ccc1NC(=O)Nc1ccccc1Br
Exam item: list the entries in increasing order of Ki. Returns: the labels arranged in the requested order.
I, III, II
(I: 2 nM, III: 5.01 nM, II: 20 nM)

A = Cc1ccccc1NC(=O)Nc1ccc(-c2cccn(Cc3ccc([C@@H](C)CC(=O)O)cc3)c2=O)c(C)c1
B = Cc1ccccc1NC(=O)Nc1ccc(-c2cccn(Cc3ccc([C@H](C)CC(=O)O)cc3)c2=O)cc1
C = COc1cc(-c2cccn(Cc3ccc(CCC(=O)O)cc3)c2=O)ccc1NC(=O)Nc1ccc(C)cc1C
Order the 3 compounds from highest to lowest Ki. Returns: the labels arranged in the requested order.
C, A, B

---

# measurement-target: Integrin alpha-4/beta-1 (Homo sapiens, UniProt P05556+P13612)
# protocol: Inhibition of integrin alpha-4-beta-1 receptor expressed in Jurkat J6 cells by SPA
quantity-measured: Ki (nM)

COc1cc(-c2cccn(Cc3ccc(CCC(=O)O)cc3)c2=O)ccc1NC(=O)Nc1ccccc1 :: 1.58

a = Cc1ccccc1NC(=O)Nc1ccc(-c2cccn(Cc3ccc([C@H](C)CC(=O)O)cc3)c2=O)c(Cl)c1
b = Cc1ccccc1NC(=O)Nc1ccc(-c2cccn(Cc3ccc(CCC(=O)O)cc3)c2=O)cc1
Determine, for a and b , which has the greater value of Ki. // output: label of the selected item
b
(b: 2.51 nM, a: 1 nM)
